These data points were gathered from patent US20110039763A1.

System: microorganisms
Assay: Targeting peptide binding to target microorganisms (Tables 3, 10, 12)
Conditions: microorganism(s) the targeting peptide binds; binding in aqueous buffers varied with peptide solubility, preferably 1x PBS
From the text: In certain embodiments, the targeting moiety comprises one or more targeting peptides that bind particular bacteria, fungi, and/or yeasts, and/or algae, and/or viruses and/or that bind particular groups of bacteria, and/or groups of fungi, and/or groups of yeasts, and/or groups of algae. In certain embodiments the targeting peptides include peptides comprising or consisting of one or more of the amino acid sequences shown in Table 3 (SEQ ID NOs:13-1566). […]
assayEndpoint: Target(s)

[[record]]
substance = "PF-690 (MIPLAGDPVSSHRTVEFGVLGTYLVSGGSL; Peptide with targeting and/or antimicrobial activity)"
assayendpoint = "Target(s)"
experimentalresult = "Mycobacteria spp"

[[record]]
substance = "PF-246 (QPDEKAEFFDPSLDKVYRHPTFYHIPDGIEHM; Peptide with targeting and/or antimicrobial activity)"
assayendpoint = "Target(s)"
experimentalresult = "S. mutans"

[[record]]
substance = "PF-684 (RKLSLASGFALWRRSLV; Peptide with targeting and/or antimicrobial activity)"
assayendpoint = "Target(s)"
experimentalresult = "Mycobacteria spp"

[[record]]
substance = "PF-333 (YMTKKLVEMAEQQMAGKSNR; Peptide with targeting and/or antimicrobial activity)"
assayendpoint = "Target(s)"
experimentalresult = "S. mutans"

